# Experimental System: bovine trypsin (Bos taurus)
# Sequence (P00760 24-246): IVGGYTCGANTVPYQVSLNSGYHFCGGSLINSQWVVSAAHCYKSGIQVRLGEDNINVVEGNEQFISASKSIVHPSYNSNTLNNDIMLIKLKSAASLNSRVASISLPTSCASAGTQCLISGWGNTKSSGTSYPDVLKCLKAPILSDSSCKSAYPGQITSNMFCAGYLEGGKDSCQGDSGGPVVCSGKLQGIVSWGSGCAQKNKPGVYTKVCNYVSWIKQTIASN
# Assay Procedure: Trypsin inhibitory activity of peptides (BApNA hydrolysis, OD405; IC50, Ki, residual activity)
# Format: biochemical
# Condition Set: trypsin 50 nM, BApNA 1.22 mM; read-out: IC50
Bridge positions count the residues as written; N and C are the ends. Peptide text beside a SMILES is read from it.
Let's look at some molecules and their measured IC50.

Molecule	Experimental System	IC50
CC[C@H](C)[C@@H]1NC(=O)[C@H](CO)NC(=O)[C@H](CCCCN)NC(=O)[C@H]([C@@H](C)O)NC(=O)[C@H](Cc2c[nH]c3ccccc23)NC(=O)[C@H](CCCNC(=N)N)NC(=O)CNC(=O)[C@@H](N)CSSC[C@@H](C(=O)O)NC(=O)[C@H](Cc2ccccc2)NC(=O)[C@H](C)NC(=O)[C@@H]2CCCN2C(=O)[C@@H]2CCCN2C1=O [BT39] (H-CGRWTKSIPPAFC-OH; disulfide 1-13 (inferred); N-terminus and C-terminus assumed)	bovine trypsin (Bos taurus)	> 50 µM
CC[C@H](C)[C@@H]1NC(=O)[C@H](CCCCN)NC(=O)[C@@H]2CCCN2C(=O)[C@@H](NC(=O)[C@H](CCCNC(=N)N)NC(=O)CN)CSSC[C@@H](C(=O)N[C@@H](Cc2ccccc2)C(=O)O)NC(=O)[C@H](CCCCN)NC(=O)[C@H](CCCCN)NC(=O)[C@H](CC(C)C)NC1=O [BT41] (H-GRCPKILKKCF-OH; disulfide 3-10)	bovine trypsin (Bos taurus)	> 50 µM
CC[C@H](C)[C@@H]1NC(=O)[C@H](CCCCN)NC(=O)[C@@H]2CCCN2C(=O)[C@@H](NC(=O)[C@H](CCCNC(=N)N)NC(=O)CN)CSSC[C@@H](C(=O)N[C@@H](Cc2ccccc2)C(=O)O)NC(=O)[C@H](CCCNC(=N)N)NC(=O)[C@H](CCC(N)=O)NC(=O)[C@H](CC(C)C)NC1=O [BT43] (H-GRCPKILQRCF-OH; disulfide 3-10)	bovine trypsin (Bos taurus)	> 50 µM
